assay: Formation of 1,5-cz-[Ln(Lig)] from Lig and Ln^III ions (metal dependent click-zip), MOPS/NaOH buffer pH 7.0, analytical HPLC (Charts 1, 2); conditions: Dy^III; after 1 hour at 80° C.; MOPS/NaOH buffer pH 7.0
# note: exactly 10% is not below, so it is f; use t for conversion to 1,5-cz-[Ln(Lig)], Dy^III strictly under it

Answered examples (3):
# check: conversion to 1,5-cz-[Ln(Lig)], Dy^III < 10% for [N-]=[N+]=NCc1cccc(CN2CCN(CC(=O)O)CCN(Cc3cccc(C#CC45CC6CC(CC(C6)C4)C5)n3)CCN(CC(=O)O)CC2)n1 [TD992]
t

Check if conversion to 1,5-cz-[Ln(Lig)], Dy^III falls below 10% for C#Cc1cccc(CN2CCN(CP(=O)(O)OCC)CCN(Cc3cccc(CN=[N+]=[N-])n3)CCN(CP(=O)(O)OCC)CC2)n1 [TD582] .
f

Dear reviewer, please state whether CC(C)(C#Cc1cccc(CN2CCN(CC(=O)O)CCN(Cc3cccc(CN=[N+]=[N-])n3)CCN(CC(=O)O)CC2)n1)NC(=O)OC(C)(C)C [TD1105] has conversion to 1,5-cz-[Ln(Lig)], Dy^III strictly beneath 10%.
t

Further cases:
Consider C#Cc1cccc(CN2CCN(CC(=O)O)CCN(Cc3cc(N(C)C)cc(CN=[N+]=[N-])n3)CCN(CC(=O)O)CC2)n1 [TD1176] . Does its conversion to 1,5-cz-[Ln(Lig)], Dy^III lie strictly below 10%?
f

For this molecule, is conversion to 1,5-cz-[Ln(Lig)], Dy^III lower than 10%? [N-]=[N+]=NCc1cccc(CN2CCN(CC(=O)O)CCN(Cc3cccc(C#CI)n3)CCN(CC(=O)O)CC2)n1 [TD1204]
t

Below 10% on conversion to 1,5-cz-[Ln(Lig)], Dy^III? Entry C#Cc1cccc(CN2CCN(CC(=O)O)CCN(Cc3cc(C(=O)OC(C)C)cc(CN=[N+]=[N-])n3)CCN(CC(=O)O)CC2)n1 [TD1148]
f

Report whether reported conversion to 1,5-cz-[Ln(Lig)], Dy^III is lower than 10% (strictly) for C#CCN(CC#C)CCN1CCN(CC(=O)O)CCN(Cc2cc(-c3ccccc3)cc(CN=[N+]=[N-])n2)CCN(CC(=O)O)CC1 [TD669]
t

###

The compounds listed here are annotated with their conversion to 1,5-cz-[Ln(Lig)], Tb^III.
experiment: Formation of 1,5-cz-[Ln(Lig)] from Lig and Ln^III ions (metal dependent click-zip), MOPS/NaOH buffer pH 7.0, analytical HPLC (Charts 1, 2); conditions: Tb^III; after 1 hour at 80° C.; MOPS/NaOH buffer pH 7.0
# output: bare number, implied unit %

Entry C#Cc1cccc(CN2CCN(CC(=O)O)CCN(Cc3cc(N(C)C)cc(CN=[N+]=[N-])n3)CCN(CC(=O)O)CC2)n1 [TD1176] has what conversion to 1,5-cz-[Ln(Lig)], Tb^III?
14

Can you share its conversion to 1,5-cz-[Ln(Lig)], Tb^III? I mean this compound: C#Cc1cccc(CN2CCN(CC(=O)O)CCN(Cc3cc(C(=O)OC(C)C)cc(CN=[N+]=[N-])n3)CCN(CC(=O)O)CC2)n1 [TD1148]
9

Fill in: conversion to 1,5-cz-[Ln(Lig)], Tb^III of C#Cc1cccc(CN2CCN(CC(=O)O)CCN(Cc3cc(C(=O)OC(C)(C)C)cc(CN=[N+]=[N-])n3)CCN(CC(=O)O)CC2)n1 [TD1160] is ___
0

Which conversion to 1,5-cz-[Ln(Lig)], Tb^III value is on record for [N-]=[N+]=NCc1cccc(CN2CCN(CC(=O)O)CCN(Cc3cccc(C#CI)n3)CCN(CC(=O)O)CC2)n1 [TD1204] ?
2

Consider the additional compound presented here.
I am curious: what conversion to 1,5-cz-[Ln(Lig)], Tb^III value has been reported for C#Cc1cccc(CN2CCN(CP(=O)(O)c3ccccc3)CCN(Cc3cccc(CN=[N+]=[N-])n3)CCN(CP(=O)(O)c3ccccc3)CC2)n1 [TD921] ?
1

###

test: Formation of 1,5-cz-[M(Lig)] from Lig and M^III ions (metal dependent click-zip) (Charts 4, 5); assay type: physicochemical; conditions: 1 hour at 80° C.; MOPS/NaOH buffer pH 7.0; TD728, TD827 in 50% i-PrOH
Listed below: conversion to 1,5-cz-[M(Lig)], Sc^III values for each entry.
Output spec: scalar in %, unitless text.

Guide cases for conversion to 1,5-cz-[M(Lig)], Sc^III, answers given:
Reported conversion to 1,5-cz-[M(Lig)], Sc^III for C#Cc1cccc(CN2CCN(CC(=O)O)CCN(Cc3cc(C(=O)OC(C)C)cc(CN=[N+]=[N-])n3)CCN(CC(=O)O)CC2)n1 [TD1148] : what is it?
0

Recorded conversion to 1,5-cz-[M(Lig)], Sc^III for CC(C)(C#Cc1cccc(CN2CCN(CC(=O)O)CCN(Cc3cccc(CN=[N+]=[N-])n3)CCN(CC(=O)O)CC2)n1)NC(=O)OC(C)(C)C [TD1105] , please?
0

Given C#Cc1cccc(CN2CCN(CC(N)=O)CCN(Cc3cc(-c4ccccc4)cc(CN=[N+]=[N-])n3)CCN(CC(N)=O)CC2)n1 [TD779] , state its recorded conversion to 1,5-cz-[M(Lig)], Sc^III.
0

# lookup: conversion to 1,5-cz-[M(Lig)], Sc^III of C#Cc1cccc(CN2CCN(CC(=O)O)CCN(Cc3cccc(CN=[N+]=[N-])n3)CCN(CC(=O)O)CC2)n1 [TD556]
2

Looking for the measured conversion to 1,5-cz-[M(Lig)], Sc^III of C#Cc1cccc(CN2CCN(CC(=O)O)CCN(Cc3cc(N(C)C)cc(CN=[N+]=[N-])n3)CCN(CC(=O)O)CC2)n1 [TD1176] , can you help?
6

Give its conversion to 1,5-cz-[M(Lig)], Sc^III value. Item: CC(C)(N)C#Cc1cccc(CN2CCN(CC(=O)O)CCN(Cc3cc(-c4ccccc4)cc(CN=[N+]=[N-])n3)CCN(CC(=O)O)CC2)n1 [TD1054]
4

Next:
Requested field: conversion to 1,5-cz-[M(Lig)], Sc^III. Item: [N-]=[N+]=NCc1cccc(CN2CCN(CC(=O)O)CCN(Cc3cccc(C#CC4CC4)n3)CCN(CC(=O)O)CC2)n1 [TD943]
0

###

experiment: Formation of 1,5-cz-[Ln(Lig)] from Lig and Ln^III ions (metal dependent click-zip), MOPS/NaOH buffer pH 7.0, analytical HPLC (Charts 1, 2); conditions: Eu^III; after 1 week at 80° C.; MOPS/NaOH buffer pH 7.0
Rule: measured conversion to 1,5-cz-[Ln(Lig)], Eu^III below 3% gets label 1; anything equal to or greater than 3% gets label 0.

Regarding C#Cc1cccc(CN2CCN(CC(=O)O)CCN(Cc3cc(-c4ccccc4)cc(CN=[N+]=[N-])n3)CCN(CC(=O)O)CC2)n1 [TD647] , kindly confirm whether its conversion to 1,5-cz-[Ln(Lig)], Eu^III is beneath 3%.
label 0

Could you please tell me whether conversion to 1,5-cz-[Ln(Lig)], Eu^III recorded for CC(C)(C#Cc1cccc(CN2CCN(CC(=O)O)CCN(Cc3cccc(CN=[N+]=[N-])n3)CCN(CC(=O)O)CC2)n1)NC(=O)OC(C)(C)C [TD1105] is less than 3%?
label 1

Does C#Cc1cccc(CN2CCN(CC(=O)O)CCN(Cc3cc(N(C)C)cc(CN=[N+]=[N-])n3)CCN(CC(=O)O)CC2)n1 [TD1176] have conversion to 1,5-cz-[Ln(Lig)], Eu^III strictly under 3%?
label 0

Continuing:
Just wondering, is conversion to 1,5-cz-[Ln(Lig)], Eu^III of C#Cc1cccc(CN2CCN(CC(=O)O)CCN(Cc3cccc(CN=[N+]=[N-])n3)CCN(CC(=O)O)CC2)n1 [TD556] below 3%?
label 0

Is it true that conversion to 1,5-cz-[Ln(Lig)], Eu^III reported for C#Cc1cccc(CN2CCN(CC(=O)O)CCN(Cc3cc(C(F)(F)F)cc(CN=[N+]=[N-])n3)CCN(CC(=O)O)CC2)n1 [TD1063] is less than 3%?
label 0

Would you kindly verify if conversion to 1,5-cz-[Ln(Lig)], Eu^III of C#CCNC(=O)CN1CCN(CC(=O)O)CCN(Cc2cc(-c3ccccc3)cc(CN=[N+]=[N-])n2)CCN(CC(=O)O)CC1 [TD425] is strictly less than 3%?
label 1

###

experiment: Formation of 1,5-cz-[Ln(Lig)] from Lig and Ln^III ions (metal dependent click-zip), MOPS/NaOH buffer pH 7.0, analytical HPLC (Charts 1, 2); conditions: Yb^III; after 1 week at 80° C.; MOPS/NaOH buffer pH 7.0
value-type: conversion to 1,5-cz-[Ln(Lig)], Yb^III (%)
Form entry: value (%) — number only.

# query: conversion to 1,5-cz-[Ln(Lig)], Yb^III of entry `C#Cc1cccc(CN2CCN(CC(=O)O)CCN(Cc3cc(N(C)C)cc(CN=[N+]=[N-])n3)CCN(CC(=O)O)CC2)n1`
97

Others:
// conversion to 1,5-cz-[Ln(Lig)], Yb^III lookup, key: `C#Cc1cccc(CN2CCN(CC(=O)O)CCN(Cc3cc(C(=O)OC(C)C)cc(CN=[N+]=[N-])n3)CCN(CC(=O)O)CC2)n1`
0

Fill in the blank: the reported conversion to 1,5-cz-[Ln(Lig)], Yb^III of `C#Cc1cccc(CN2CCN(CC(=O)O)CCN(Cc3cc(Cl)cc(CN=[N+]=[N-])n3)CCN(CC(=O)O)CC2)n1` is ____.
96

I'd like to know its conversion to 1,5-cz-[Ln(Lig)], Yb^III. The compound in question is `C#Cc1cccc(CN2CCN(CC(=O)O)CCN(Cc3cc(C(=O)OC)cc(CN=[N+]=[N-])n3)CCN(CC(=O)O)CC2)n1`
0
